TARGET_ENTITY: DEN2V NS2B-NS3pro (Dengue virus type 2, UniProt P29990)
Sequence (P29990 1398-1437): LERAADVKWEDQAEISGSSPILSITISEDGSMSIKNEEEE
Sequence (P29990 1476-1653): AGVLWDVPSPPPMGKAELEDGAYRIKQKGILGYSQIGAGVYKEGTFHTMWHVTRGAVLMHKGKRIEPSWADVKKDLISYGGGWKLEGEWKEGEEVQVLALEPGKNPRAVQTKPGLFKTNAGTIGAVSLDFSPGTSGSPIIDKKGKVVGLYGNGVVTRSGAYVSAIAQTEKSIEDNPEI
EXPERIMENT_NOTES: Steady-state kinetics of DEN2V NS2B-NS3pro inhibition
Assay type: biochemical, dengue 2 virus
RUN_CONDITIONS: DEN2V NS2B-NS3pro; BOC-GRR-AMC 0 to 1.2 mM
PROPERTY_MEASURED: Mechanism

CO[C@H]1C[C@H](O[C@@H]2/C(C)=C/C[C@@H]3C[C@@H](C[C@]4(CC[C@H](C)[C@@H](C5CCCCC5)O4)O3)OC(=O)[C@@H]3C=C(C)/C(=N/O)[C@H]4OC/C(=C\C=C\[C@@H]2C)[C@]43O)O[C@@H](C)[C@@H]1O
mixed
CC[C@H](C)[C@H]1O[C@]2(CC[C@@H]1C)C[C@@H]1C[C@@H](C/C=C(\C)[C@@H](O[C@H]3C[C@H](OC)[C@@H](O[C@H]4C[C@H](OC)[C@@H](O)[C@H](C)O4)[C@H](C)O3)[C@@H](C)/C=C/C=C3\CO[C@@H]4[C@H](O)C(C)=C[C@@H](C(=O)O1)[C@]34O)O2
mixed
Cc1cc(C(C)(C)CC(C)(C)C)ccc1OCCOCC[N+](C)(C)Cc1ccccc1.[Cl-] [MS22, Methylbenzethonium chloride]
mixed
